- Study system: Angiotensin-converting enzyme (Homo sapiens, UniProt P12821)
- Sequence (P12821 whole entry): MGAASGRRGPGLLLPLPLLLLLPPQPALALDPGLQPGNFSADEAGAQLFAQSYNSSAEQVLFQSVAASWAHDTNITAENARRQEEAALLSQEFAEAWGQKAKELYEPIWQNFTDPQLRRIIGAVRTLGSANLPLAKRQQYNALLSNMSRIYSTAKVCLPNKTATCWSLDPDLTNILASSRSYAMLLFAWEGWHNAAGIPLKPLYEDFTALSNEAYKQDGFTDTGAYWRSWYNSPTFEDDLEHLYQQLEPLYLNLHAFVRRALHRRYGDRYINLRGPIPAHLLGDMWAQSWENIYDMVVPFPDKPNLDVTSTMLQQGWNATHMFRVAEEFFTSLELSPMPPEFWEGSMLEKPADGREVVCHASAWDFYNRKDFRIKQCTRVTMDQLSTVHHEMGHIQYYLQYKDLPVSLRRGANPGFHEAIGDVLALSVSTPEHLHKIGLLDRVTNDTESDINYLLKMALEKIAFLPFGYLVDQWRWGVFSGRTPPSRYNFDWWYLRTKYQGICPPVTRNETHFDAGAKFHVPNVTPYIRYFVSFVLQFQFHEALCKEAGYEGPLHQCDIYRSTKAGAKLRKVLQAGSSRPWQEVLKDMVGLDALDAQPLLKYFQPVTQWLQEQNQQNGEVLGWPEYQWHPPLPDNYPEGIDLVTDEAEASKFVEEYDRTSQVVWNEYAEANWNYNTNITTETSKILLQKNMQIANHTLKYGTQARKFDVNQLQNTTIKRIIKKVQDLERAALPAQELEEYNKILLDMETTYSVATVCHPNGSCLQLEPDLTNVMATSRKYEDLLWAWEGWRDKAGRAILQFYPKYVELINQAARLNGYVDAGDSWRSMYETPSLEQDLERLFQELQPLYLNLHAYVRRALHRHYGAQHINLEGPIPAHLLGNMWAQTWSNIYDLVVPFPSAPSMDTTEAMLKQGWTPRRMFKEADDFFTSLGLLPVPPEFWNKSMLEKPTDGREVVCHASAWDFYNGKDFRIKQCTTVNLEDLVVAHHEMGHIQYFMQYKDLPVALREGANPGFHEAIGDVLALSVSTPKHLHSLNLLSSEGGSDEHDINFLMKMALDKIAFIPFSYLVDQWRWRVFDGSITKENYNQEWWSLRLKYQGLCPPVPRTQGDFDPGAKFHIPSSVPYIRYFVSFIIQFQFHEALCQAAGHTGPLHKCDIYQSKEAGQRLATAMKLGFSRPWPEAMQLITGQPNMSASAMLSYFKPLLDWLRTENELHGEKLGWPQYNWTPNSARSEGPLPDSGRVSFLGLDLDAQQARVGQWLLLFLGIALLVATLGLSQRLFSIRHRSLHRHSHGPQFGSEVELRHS
Endpoint label: IC50
Remember to put the unit after the number in your answer.

Considering C[C@H](CS)C(=O)N1C[C@@H](NC(=O)C(CS)Cc2ccc(-c3ccccc3)cc2)C[C@H]1C(=O)O (stereo partly specified) , its IC50 with Angiotensin-converting enzyme (Homo sapiens, UniProt P12821) was recorded as 696 nM

Values from ChEMBL document CHEMBL1152063
